# assayComment: pKa of the compound was determined
# Type: physicochemical
readoutType: pKa
Output: the number by itself.

compound	pKa
NS(=O)(=O)c1nn2cc(-c3ccc(O)cc3)nc2s1	8.16

Looking for the measured pKa of CC(C)(C)c1cn2cc(S(N)(=O)=O)sc2n1 , can you help?
8.37

Which pKa reading was recorded for the compound CC(C)(C)c1cn2nc(S(N)(=O)=O)sc2n1 ?
6.94

What value of measured pKa is listed for CC(=O)/N=c1/sc(S(N)(=O)=O)nn1C [METHAZOLAMIDE] ?
7.2

Fill in: pKa of NS(=O)(=O)c1nn2cc(-c3ccccc3)nc2s1 is ___
7.12
